SYSTEM: T1, recombinant His-tagged human PD-1 (Acro Biosystems) (human, UniProt Q15116 25-167)
T1 construct: His-tagged; also called hPD-1
T1 sequence (Q15116 25-167 limits assumed): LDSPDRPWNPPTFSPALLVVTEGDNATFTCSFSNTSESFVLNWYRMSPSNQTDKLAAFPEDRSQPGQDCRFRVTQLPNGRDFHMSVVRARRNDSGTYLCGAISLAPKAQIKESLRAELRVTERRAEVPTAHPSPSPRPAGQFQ
PROTOCOL_SUMMARY: SPR Carterra LSA;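 note: antibodies or fusion proteins amine-coupled on an HC30M chip, soluble His-tagged human or cynomolgus PD-1 titrated over them, non-regenerative kinetics, constants fitted from titration curves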
RECORDED_ENDPOINT: kon

>>> test_value("G12-hIgG4 (antibody, V domains shown) VH: DSLVESGGGLVQPGGSLRLSCAASGFTFDISAMSWVRQAPGKGLEWVSTISGSAYSTYYADSVKGRFTISRDNSKSTLYLQMNSLRAEDTAVYYCAREIFSDYWGLGTLVTVSS VL: QSVLTQPPSASGTPGQRVTISCSGSTSNIGRESVYWYQQLPGTAPKLLIYLNSQRPSGVPDRFSGSKSGTSASLAISGLQSEDVADYYCGTWDDSLNGWVFGGGTKLTVLG")
"53000 M⁻¹ s⁻¹"

Note: attention shifts to another entry.
Lookup: Could you share which kon value was measured for D12-hIgG4 (antibody, V domains shown) VH: DVQLVESGGGLVQPGGSLRLSCAASGFTFDISAMSWVRQAPGKGLEWVSTISGSAYSTYYADSVKGRFTISRDNSKSTLYLQMNSLRAEDTAVYYCAREIFSDYWGLGTLVTVSS VL: QSVLTQPPSASGTPGQRVTISCSGNTSNIGRESVYWYQQLPGTAPKLLIYSNVQRPSGVPDRFSGSKSGTSASLAISGLQSEDEADYYCGTWDDSLNGWVFGGGTKLTVLG ?
Found: 57000 M⁻¹ s⁻¹
